- System: BT-549 breast
- run.description: NCI tumour cell line growth inhibition, 48 h
Values of TGI greater than or equal to 20 µM map to Condition met; values below map to Condition not met.

Take a look at these entries with their results.
• COc1cc(-c2cncn2-c2ccc(-c3nc4ccc(F)cc4s3)cc2)ccc1F = Condition met
• [N-]=[N+]=NC1=CC(=O)c2cccc3cccc1c23 = Condition met
• O=c1ccc(N=Nc2ccccc2)ccc1Cl = Condition not met
• O=CC(NC(=O)N(CCCl)N=O)C(O)C(O)C(O)CO (stereo unspecified) = Condition met
• O=C(O)CCc1nc2c(n1Cc1ccccc1)C(=O)c1ccccc1C2=O = Condition met

Is TGI for Cc1nn(C(=O)Cc2ccccc2)c2c1C(c1ccc3ccccc3c1O)SC(N)=N2 (stereo unspecified) at or above 20 µM?
Condition met

API: above_or_equal(metric=TGI, cutoff=20 µM) for item C/C=C(/C(=C/C)c1ccc(O)cc1)c1ccc(O)cc1
Condition met

In plain terms: is recorded TGI at least 20 µM for COC(=O)[C@](NC(=O)OCc1ccccc1)([C@@H](C)Sc1ccc(C)cc1)C(F)(F)F ?
Condition met

Assess whether reported TGI for COc1cccc(-n2ncc3c(N/N=C/c4ccc(F)cc4)ncnc32)c1 sits at 20 µM or higher.
Condition met

For this molecule, is measured TGI 20 µM or higher? CCSc1ccc2c(c1)N(CCCN1CCN(C)CC1)c1ccccc1S2
Condition not met

Decide: TGI of C=CCCC(=O)N1CCC(C(=O)OCC)C1=O (stereo unspecified) >= 20 µM?
Condition met

----------
- Test system: K-562 leukemia
- run.description: NCI tumour cell line growth inhibition, 48 h; in the data active = GI50 below about 0.43 µM; inactive = the rest
// allowed return values: True (active), False (inactive)

- CCC(/C=C(C)/C=C/C(=O)c1c(O)c(-c2ccc(O)cc2)c[nH]c1=O)CO (configuration not stated): False
- COc1ccc(/C=N/Nc2nc(N)nc(N3CCCC3)c2C#N)cc1: False
- COc1cc(-c2cc(/C=C3\C(=O)Nc4ccc(Cl)cc43)[nH]n2)cc(OC)c1OC: False
- COc1ccc2c(c1)CC[C@@H]1[C@@H]2CC[C@]2(C)C(c3ccsc3)=C(/C=C/C(=O)c3ccccc3)C[C@@H]12: False
- NS(=O)(=O)c1ccc(Nc2ncc(-c3ccccc3)o2)cc1: False

Fill in: this test's call for CC(C)(Oc1ccc(Cl)cc1)C(=O)NC1C2CC3CC1CC(NS(C)(=O)=O)(C3)C2 (configuration not stated) is ___
False

Recorded test call requested for c1cc(N2CCN(c3ccc(C4=NCCN4)cc3)CC2)ccc1C1=NCCN1
False

----------
Consider the following compounds and their measured GI50 readings.
- System: SR leukemia
- run.description: NCI tumour cell line growth inhibition, 48 h

In the examples that follow, each entry is paired with its recorded GI50.
- O=c1ccc(N=Nc2ccccc2)ccc1Cl: 1730 nM
- CCOC(=O)c1c2c(n(Cc3ccc(Cl)cc3Cl)c1C)-c1nc(Cc3ccccc3)[nH]c1C(=O)C2=O: 1780 nM
- CCC(CC)COC(=O)[C@H](C)N[P@](=O)(OC[C@H]1O[C@@](C#N)(c2ccc3c(N)ncnn23)[C@H](O)[C@@H]1O)Oc1ccccc1: 1000 nM
- COc1ccc(-c2cnoc2-c2ccc(OC)cc2O)cc1: 628 nM
- COc1ccc(/C=N/Nc2nc(N)nc(N3CCCC3)c2C#N)cc1: 7720 nM

// GI50 lookup, key: CNCCCNc1c2cc(OC)ccc2nc2cccc([N+](=O)[O-])c12
25.3 nM

State the recorded GI50 for this entry: Oc1ccc(/C=C/c2ccc(O)cc2)cc1
204 nM

Reported GI50, compound Cc1ccc(NS(=O)(=O)c2ccc(-c3cnc(C4CC4)o3)cc2)cc1C : ____
476 nM

----------
- Tested on: U251 CNS
- run.description: NCI tumour cell line growth inhibition, 48 h
Below, each entry is listed with its recorded TGI.
Please give a number only; it is taken to be in µM.

* CN(CCO)C1CCN(c2ccc(Nc3ncc4c5ccnc(F)c5n(C5CCCC5)c4n3)nc2)CC1 | 7.5
* COC(=O)C(Cc1c[nH]c2ccccc12)NC(=O)C(Cc1c[nH]c2ccccc12)NC(=O)OCc1ccccc1 (centres undefined) | 30.6
* COc1cc([C@@H]2c3cc4c(cc3[C@@H](NC(=O)c3cccc(N)c3)C3COC(=O)[C@@H]32)OCO4)cc(OC)c1O (some centres undefined) | 4.51

Proceed to the following item.
Which TGI is listed for OCCCNCC(O)c1ccc(OCc2ccccc2)c(OCc2ccccc2)c1 (centres undefined) ?
23.1

----------
- Tested on: OVCAR-4 ovarian
- run.description: NCI tumour cell line growth inhibition, 48 h
Collected TGI values appear next to each entry.

Example entries and their recorded answers appear below.
• COC(=O)C(Cc1nc2ccc(Cl)cc2[nH]c1=O)/C(=N/O)C(=O)Nc1cccc(Cl)c1C (stereo unspecified) = > 100 µM
• Cn1cnc([N+](=O)[O-])c1Sc1nc2ncccc2[nH]1 = > 100 µM
• COC(=O)[C@](NC(=O)OCc1ccccc1)([C@@H](C)Sc1ccc(C)cc1)C(F)(F)F = > 100 µM
• COc1ccc(N(CC(=O)O)S(=O)(=O)c2ccccc2)cc1 = > 100 µM
• O=C1c2[nH]cc(CN3CCN(CCO)CC3)c2C(=O)c2c1c(O)c1ccccc1c2O = 29.4 µM

Can you look up the measured TGI of O=C(O)CCC(=O)C(=O)O for me?
> 100 µM

What value of TGI has been recorded for this entry: COC(=O)c1sc(=O)n(-c2ccccc2)c1SCc1ccccc1
> 100 µM

Fill blank: measured TGI of the molecule C=C1C[C@]23CC[C@@H]4C(CO)(CO)CC(=O)C[C@]4(C)[C@@H]2CC[C@H]1C3 is ____.
> 100 µM

Sample O=NNc1ccc(S(=O)c2ccccc2)cn1 (stereo unspecified) — what was its TGI?
> 100 µM

Given N#CCCN(CCNc1ccccc1)C(=O)Nc1ccc(NC(=O)N(CCC#N)CCNc2ccccc2)cc1 , state its recorded TGI.
> 31.6 µM

Item under review: CO[C@]12CC(=O)C3(C(C[C@H]4CC5CCC6=CC(=O)CC[C@]6(OC(C)=O)C5C[C@@]43C)C1)C1C[C@H]3[C@@H]4CCC5=CC(=O)CC[C@]5(OC(C)=O)[C@H]4CC[C@]3(C)C12 (stereo partly specified) . Reported TGI?
> 100 µM

Look at this molecule and give its reported TGI. Cc1cc(I)cc(CN(C)CCN(C)C)c1O
> 100 µM

Recorded TGI of Cn1c([N+](=O)[O-])cnc1CN1CCN(CCO)CC1 , please.
> 100 µM

----------
Reported TGI values for a set of molecules
- Test system: ACHN renal
- run.description: NCI tumour cell line growth inhibition, 48 h

Recorded TGI for COc1ccc(NCC#N)cc1 with ACHN renal, please?
> 100 µM

TGI of CN1CCN(Cc2ccc(NC(=O)c3nc4ccc5[nH]ncc5c4c4c3CCCC4)cc2C(F)(F)F)CC1 on ACHN renal?
1.55 µM

API: value(readout= TGI, system= ACHN renal, query= O=c1[nH]c2cc(Cl)ccc2nc1/C(=N/Nc1ccccc1)C(O)c1ccco1 (configuration not stated) )
> 100 µM

Field: TGI (ACHN renal). Entry: O=c1cc(NNc2ccc3ccccc3c2)[nH]c(=S)[nH]1
> 100 µM

Record CN=c1oc2ccccc2cc1C(N)=O : what is its TGI with ACHN renal?
> 100 µM

What value of TGI on ACHN renal does COC(=O)C12C3C4C1C1C2C3C41C(=O)O (configuration not stated) have?
> 100 µM

Test system ACHN renal; read-out TGI; what value for COc1ccc(CN2CCc3c(Sc4ccccc4)nc(N)nc3C2=O)c(OC)c1 ?
52 µM

Look up TGI with ACHN renal for this molecule: CCOC(=O)Cn1c(=O)n(C)c(=O)c2[nH]cnc21
> 100 µM

Recorded TGI for Cc1ccc2c(=O)cc(-c3cccc(Cl)c3)[nH]c2n1 with ACHN renal, please?
> 100 µM

Request: TGI, test system ACHN renal, entry COc1ccc(-c2cnoc2-c2ccc(OC)cc2O)cc1
> 100 µM

Form entry - test system: ACHN renal; read-out: TGI; molecule: Nc1nc2cc(-c3ccc4ncc(C(=O)N5CCOCC5)n4c3)ccc2o1
> 100 µM

Record lookup: for ACHN renal, what TGI belongs to C=C(C)C[C@H](Sc1nc2ccccc2s1)[C@H](C)O ?
> 100 µM

----------
- System: NCI-H522 lung
- run.description: NCI tumour cell line growth inhibition, 48 h
assay.readout: TGI

• COc1ccc(/C=C2\CS(=O)(=O)C/C(=C\c3ccc(OC)cc3)C2=O)cc1 = 3.02 µM
• CCC#CCCCCCCCCC(F)C(=O)O (stereo not given) = > 100 µM

Which TGI value is on record for N#Cc1ccsc1Nc1ccccc1[N+](=O)[O-] ?
> 100 µM

Tell me the measured TGI of Cc1nn(-c2ccccc2)c(-n2ccnc2)c1/C=N/Nc1nc(-c2ccc(Cl)c(Cl)c2)cs1 , please.
68.1 µM

Quick one: TGI of COC(=O)CCC(C)[C@H]1CCC2C3C(C[C@H](OC(C)=O)[C@@]21C)[C@@]1(C)CCC2(C[C@H]1C[C@H]3OC(C)=O)OOC1(CCCCCCC1)OO2 (stereo not given in full) ?
> 100 µM

Fill in the blank: the reported TGI of COC(=O)[C@@H]1CCCN1C(=O)[C@@H]1CCCN1C(=O)[C@H](Cc1ccccc1)NC(=S)Nc1cc(C(F)(F)F)cc(C(F)(F)F)c1 is ____.
9.6 µM

Endpoint output: TGI of CCN(CC)CCn1c(N)c(-c2nc3ccccc3n2C)c2nc(C#N)c(C#N)nc21 . Value?
24.9 µM

State the recorded TGI for this entry: Cc1cc(C)c2c(=O)cc(-c3cccc(Cl)c3)[nH]c2n1
0.742 µM

What does the data say about its TGI? Entry: Cn1c([N+](=O)[O-])cnc1CN1CCN(CCO)CC1
> 100 µM

If you can, please state the reported TGI value of COC(=O)C1CCC(=O)C(Sc2ccccc2)C1 (stereo not given) .
> 100 µM
